These entries and their values trace back to patent US12590066B2.

protocol details: Liver microsome stability
Type: in vitro ADME
study conditions: rat liver microsomes 0.25 mg/mL, 1 μM compound, 37° C., 30 minutes, NADPH
Protocol: The stability of liver microsomes due to the compounds prepared according to Examples 1 to 57 was confirmed. […] The amount of the substrate remaining after the reaction was analyzed using the Shimadzu Nexera XR system and TSQ Vantage (Thermo). […]
Measured Rat (%) amount of substrate remaining after the reaction, listed per entry.
Provide only the numeric value, understood in %.

Use the examples below as a reference point.
CC(C)n1ccc2ccc(NN=C(C#N)C#N)cc2c1=O    44.4
Cn1c(=O)sc2cc(NN=C(C#N)C#N)ccc21    87.1
CCn1c(=O)n(C)c2cc(NN=C(C#N)C#N)cnc21    96.3
CCn1c(=O)n(C(C)C)c2ncc(NN=C(C#N)C#N)cc21    91.8

Which measured Rat (%) amount of substrate remaining after the reaction value corresponds to "N#CC(C#N)=NNc1ccc2c(c1)oc(=O)n2C(F)F" ?
79.8

Same question for "CC(C)n1c(=O)oc2ccc(NN=C(C#N)C#N)cc21" please.
96.4

Can you handle "Cn1c(=O)n(C)c2cc(NN=C(C#N)C#N)c(Cl)cc21" next?
92.7

Cool, now "Cn1c(=O)oc2cc(NN=C(C#N)C#N)ccc21"
89.1

What about "CC(C)n1c(=O)n(C(F)F)c2cc(NN=C(C#N)C#N)ccc21" ?
86.2

How about "N#CC(C#N)=NNc1ccc2c(c1)n(C(F)F)c(=O)n2C(F)F" ?
86.8

---

System: Tau-BiFC cells
protocol details: Cell viability (stained nuclei count) in Tau-BiFC cells
Type: cell-based
study conditions: 10 μM compound, 48 hours; Forskolin-only group = 100% cell viability
endpoint: Cell viability (% @10 μM) (%)
Entry rule: numbers only, all in %.

CCn1c(=O)n(C(F)F)c2cc(NN=C(C#N)C#N)cnc21 [Compound 50]    119
Cn1c(=O)n(C)c2c(Cl)cc(NN=C(C#N)C#N)cc21 [Compound 11]    142.3
CCn1c(=O)n(C)c2cc(NN=C(C#N)C#N)ccc21 [Compound 38]    106
CC(C)n1c(=O)n(C(C)C)c2ncc(NN=C(C#N)C#N)cc21 [Compound 34]    120
CCn1c(=O)n(C)c2ncc(NN=C(C#N)C#N)cc21 [Compound 44]    138
CC(C)n1c(=O)oc2cc(NN=C(C#N)C#N)ccc21 [Compound 20]    106
Cn1c(=O)n(C(F)F)c2cc(NN=C(C#N)C#N)ccc21 [Compound 37]    121
CCn1c(=O)n(C)c2cc(NN=C(C#N)C#N)cnc21 [Compound 48]    143
Cn1c(=O)n(C)c2ncc(NN=C(C#N)C#N)cc21 [Compound 12]    145.2

# ---- query molecule ----
State the recorded Cell viability (% @10 μM) for this entry: N#CC(C#N)=NNc1ccc2c(c1)sc(=O)n2C(F)F [Compound 19]
125.3

---

protocol details: Liver microsome stability
Format: in vitro ADME
study conditions: mouse liver microsomes 0.25 mg/mL, 1 μM compound, 37° C., 30 minutes, NADPH
Let's look at some molecules and their measured Mouse (%) amount of substrate remaining after the reaction.
Please respond with the number in % and leave the unit unwritten.

Completed entries (count: 4):
N#CC(C#N)=NNc1ccc2c(c1)n(C(F)F)c(=O)n2C(F)F    84.1
Cn1c(=O)n(C)c2c(Cl)cc(NN=C(C#N)C#N)cc21    63.9
Cn1ccc2ccc(NN=C(C#N)C#N)cc2c1=O    63.4
Cn1c(=O)oc2cc(NN=C(C#N)C#N)ccc21    81

Any idea what Mouse (%) amount of substrate remaining after the reaction was measured for "COc1cc(NN=C(C#N)C#N)cc2c1n(C)c(=O)n2C" ?
78.7

Query "CC(C)n1c(=O)n(C(C)C)c2ncc(NN=C(C#N)C#N)cc21" next
86.6

For "CC(C)n1c(=O)oc2cc(NN=C(C#N)C#N)ccc21" then?
73.1

Query "Cn1c(=O)n(C)c2cc(NN=C(C#N)C#N)c(Cl)cc21" next
92.6

Please do the same for "CC(C)n1c(=O)n(C(F)F)c2cc(NN=C(C#N)C#N)ccc21" as well.
58.6

---

protocol details: Liver microsome stability
Assay type: in vitro ADME
study conditions: dog liver microsomes 0.25 mg/mL, 1 μM compound, 37° C., 30 minutes, NADPH
Method: The stability of liver microsomes due to the compounds prepared according to Examples 1 to 57 was confirmed. […] The amount of the substrate remaining after the reaction was analyzed using the Shimadzu Nexera XR system and TSQ Vantage (Thermo). […]
Rule for this label: t means Dog (%) amount of substrate remaining after the reaction is less than 80%; f means Dog (%) amount of substrate remaining after the reaction is at least 80%.

Use these answered entries as a reference point.
Cn1c(=O)n(C)c2cc(NN=C(C#N)C#N)ccc21    f
Cn1ccc2ccc(NN=C(C#N)C#N)cc2c1=O    t
Cn1c(=O)n(C)c2c(Cl)cc(NN=C(C#N)C#N)cc21    t

Report whether reported Dog (%) amount of substrate remaining after the reaction is lower than 80% (strictly) for "N#CC(C#N)=NNc1ccc2[nH]c(=O)oc2c1"
f

Then "Cn1c(=O)sc2cc(NN=C(C#N)C#N)ccc21" ?
t

And "Cn1c(=O)oc2cc(NN=C(C#N)C#N)ccc21" ?
f

Same question, "N#CC(C#N)=NNc1ccc2[nH]c(=O)sc2c1" this time
f

Same question for "CC(C)n1c(=O)sc2cc(NN=C(C#N)C#N)ccc21" please.
f

Query "Cc1cc2c(NN=C(C#N)C#N)cccc2c(=O)n1C" next
f

Would you mind doing "Cn1ccc2c(NN=C(C#N)C#N)cccc2c1=O" as well?
f

---

target: CYP3A4 (Homo sapiens)
Construct: human liver microsomes (0.25 mg/mL); from tissue; host or cells: human liver microsomes
Sequence (P08684 whole entry): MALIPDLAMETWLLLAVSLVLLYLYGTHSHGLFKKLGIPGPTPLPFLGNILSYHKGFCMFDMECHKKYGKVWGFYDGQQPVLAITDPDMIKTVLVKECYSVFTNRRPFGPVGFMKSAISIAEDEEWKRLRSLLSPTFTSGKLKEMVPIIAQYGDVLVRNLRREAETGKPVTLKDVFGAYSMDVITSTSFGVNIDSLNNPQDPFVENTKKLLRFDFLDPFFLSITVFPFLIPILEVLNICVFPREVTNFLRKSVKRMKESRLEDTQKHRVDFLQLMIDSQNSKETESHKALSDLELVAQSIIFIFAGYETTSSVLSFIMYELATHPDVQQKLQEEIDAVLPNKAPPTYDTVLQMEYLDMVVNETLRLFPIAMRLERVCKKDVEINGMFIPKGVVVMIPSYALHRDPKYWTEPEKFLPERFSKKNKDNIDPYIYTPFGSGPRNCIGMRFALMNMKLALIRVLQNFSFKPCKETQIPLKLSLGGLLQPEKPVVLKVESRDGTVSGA
protocol details: Inhibitory effect on CYP coenzyme activity, human liver microsomes
Type: in vitro ADME
study conditions: 10 μM compound, human liver microsomes 0.25 mg/mL, substrate midazolam, 15 minutes
endpoint: CYP3A4 coenzyme activity (%) with respect to control group not treated
Write the answer as a number in %, unit excluded.

Cc1cc2c(NN=C(C#N)C#N)cccc2c(=O)n1C    72

Form field: reported CYP3A4 coenzyme activity (%) with respect to control group not treated of "N#CC(C#N)=NNc1cccc2c(=O)[nH]ccc12"
81.6

---

Test system: Tau-BiFC cells
protocol details: Cell viability (stained nuclei count) in Tau-BiFC cells
Assay type: cell-based
study conditions: 10 μM compound, 48 hours; Forskolin-only group = 100% cell viability
endpoint: Cell viability (% @10 μM) (%)
Reply numerically in %, unit not repeated.

CCn1c(=O)n(C2CC2)c2ccc(NN=C(C#N)C#N)cc21    112
Cn1c(=O)oc2cc(NN=C(C#N)C#N)ccc21    129.8
CC(C)n1c(=O)n(C(F)F)c2cc(NN=C(C#N)C#N)ccc21    96
Cn1c(=O)n(C)c2cc(NN=C(C#N)C#N)ccc21    120.7
N#CC(C#N)=NNc1ccc2[nH]c(=O)oc2c1    127.7
Cn1c(=O)oc2ccc(NN=C(C#N)C#N)cc21    134
CC(C)n1c(=O)n(C2CC2)c2ccc(NN=C(C#N)C#N)cc21    124
CCn1c(=O)n(C(C)C)c2cc(NN=C(C#N)C#N)cnc21    139
N#CC(C#N)=NNc1ccc2[nH]c(=O)ccc2c1    152.5

Consider the record given below.
I'd like to know its Cell viability (% @10 μM). The compound in question is "N#CC(C#N)=NNc1ccc2oc(=O)n(C(F)F)c2c1"
127

---

target: CYP2C9 (Homo sapiens, UniProt P11712)
Construct: human liver microsomes (0.25 mg/mL); from tissue; host or cells: human liver microsomes
Sequence (P11712 whole entry): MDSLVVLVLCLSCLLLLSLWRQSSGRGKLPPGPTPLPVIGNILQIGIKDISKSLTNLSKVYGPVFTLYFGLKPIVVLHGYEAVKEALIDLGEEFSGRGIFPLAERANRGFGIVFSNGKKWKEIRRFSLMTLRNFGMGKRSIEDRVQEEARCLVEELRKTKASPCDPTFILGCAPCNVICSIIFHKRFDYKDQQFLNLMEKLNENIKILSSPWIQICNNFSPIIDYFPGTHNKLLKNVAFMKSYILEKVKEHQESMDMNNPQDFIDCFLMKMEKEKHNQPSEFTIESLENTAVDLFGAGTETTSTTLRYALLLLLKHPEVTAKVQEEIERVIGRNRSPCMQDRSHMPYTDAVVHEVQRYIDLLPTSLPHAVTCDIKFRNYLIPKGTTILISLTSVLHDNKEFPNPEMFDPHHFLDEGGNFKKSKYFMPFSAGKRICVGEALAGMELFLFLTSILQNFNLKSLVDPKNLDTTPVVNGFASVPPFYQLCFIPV
protocol details: Inhibitory effect on CYP coenzyme activity, human liver microsomes
Assay type: in vitro ADME
study conditions: 10 μM compound, human liver microsomes 0.25 mg/mL, substrate diclofenac, 15 minutes
endpoint: CYP2C9 coenzyme activity (%) with respect to control group not treated
Numeric answer only, unit % assumed.

CCn1c(=O)n(C)c2cc(NN=C(C#N)C#N)ccc21    92.6
CC(C)n1ccc2ccc(NN=C(C#N)C#N)cc2c1=O    78.5
Cn1ccc2ccc(NN=C(C#N)C#N)cc2c1=O    77.9

Give CYP2C9 coenzyme activity (%) with respect to control group not treated (CYP2C9 (Homo sapiens, UniProt P11712)) of the following molecule: "N#CC(C#N)=NNc1ccc2c(c1)oc(=O)n2C(F)F"
64.4

Lookup "N#CC(C#N)=NNc1ccc2c(c1)n(C(F)F)c(=O)n2C(F)F"
40.6

---

Below: a set of entries, each annotated with reported Rat (%) amount of substrate remaining after the reaction.
protocol details: Liver microsome stability
Type: in vitro ADME
study conditions: rat liver microsomes 0.25 mg/mL, 1 μM compound, 37° C., 30 minutes, NADPH
Numbers only here, please. The scale is %.

N#CC(C#N)=NNc1ccc2c(c1)sc(=O)n2C(F)F    69.7

API: the following record is the query input.
Item "Cn1c(=O)n(C)c2c(Cl)cc(NN=C(C#N)C#N)cc21" has what recorded Rat (%) amount of substrate remaining after the reaction?
82.8
